// data source = patent US20220251241A1

Listing of entries alongside the reported kon.
- System Name: HTRA1 (construct not given) (Homo sapiens (Human), UniProt Q92743 23-480, limits assumed)
- Sequence (Q92743 23-480 limits assumed): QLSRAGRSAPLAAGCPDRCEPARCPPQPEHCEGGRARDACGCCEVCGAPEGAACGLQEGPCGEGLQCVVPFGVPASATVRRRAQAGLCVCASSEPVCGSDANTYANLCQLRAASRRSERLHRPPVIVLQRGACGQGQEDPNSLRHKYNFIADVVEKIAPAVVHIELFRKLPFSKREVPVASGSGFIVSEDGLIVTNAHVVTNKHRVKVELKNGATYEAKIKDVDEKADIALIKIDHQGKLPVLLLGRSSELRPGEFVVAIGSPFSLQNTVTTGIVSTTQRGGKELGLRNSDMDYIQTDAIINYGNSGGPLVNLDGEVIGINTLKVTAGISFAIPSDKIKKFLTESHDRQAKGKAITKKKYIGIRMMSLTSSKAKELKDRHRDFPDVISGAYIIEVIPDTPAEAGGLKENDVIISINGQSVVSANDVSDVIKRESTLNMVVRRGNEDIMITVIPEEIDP
- Procedure Summary: SPR (Biacore)
Express your answer in M⁻¹ s⁻¹, writing the number without its unit.

hz24F7.v2 S91L (antibody, human IgG1, kappa, N297G, V domains shown) VH: QVQLVQSGAEVKKPGASVKVSCKASGYTFTDYEMHWVRQAPGQRLEWMGAIDPETGGTAYNQKFKGRVTITADKSASTAYMELSSLRSEDTAVYYCTREGYSYEGGGYYFDYWGQGTLVTVSS VL: DIQMTQSPSSLSASVGDRVTITCSVSSSVSYMYWYQQKPGKAPKLLIYDTSNLASGVPSRFSGSGSGTDFTFTISSLQPEDIATYYCQQWLSYPTFGQGTKLEIKR | 3.67e+06
hz24F7.v2 S91A (antibody, human IgG1, kappa, N297G, V domains shown, hz24F7.v2 with a substitution in light chain CDR3) VH: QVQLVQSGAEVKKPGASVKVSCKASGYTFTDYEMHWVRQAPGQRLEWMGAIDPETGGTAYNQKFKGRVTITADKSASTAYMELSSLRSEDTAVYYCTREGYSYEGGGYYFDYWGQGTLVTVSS VL: DIQMTQSPSSLSASVGDRVTITCSVSSSVSYMYWYQQKPGKAPKLLIYDTSNLASGVPSRFSGSGSGTDFTFTISSLQPEDIATYYCQQWASYPTFGQGTKLEIKR | 3.63e+06

Field: next binder
Enquiry: Report kon for hz24F7.v2 S92Y (antibody, human IgG1, kappa, N297G, V domains shown, hz24F7.v2 with a substitution in light chain CDR3) VH: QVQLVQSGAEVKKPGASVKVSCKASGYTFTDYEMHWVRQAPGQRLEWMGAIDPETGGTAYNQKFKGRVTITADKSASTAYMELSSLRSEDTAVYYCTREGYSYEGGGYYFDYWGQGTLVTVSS VL: DIQMTQSPSSLSASVGDRVTITCSVSSSVSYMYWYQQKPGKAPKLLIYDTSNLASGVPSRFSGSGSGTDFTFTISSLQPEDIATYYCQQWSYYPTFGQGTKLEIKR please.
Return: 8.56e+06
